# SYSTEM NAME: Cytochrome P450 3A4 (Homo sapiens)
# PROTOCOL DESCRIPTION: Cytochrome panel assay with activity outcomes
# EXPERIMENTAL SETUP: recombinant CYP, pro-luciferin dealkylation, luminescence, p450-cyp3a4; series mostly up to 57.1 µM
The campaign covered roughly 16,000 compounds. About 5,100 (32%) were called active. About 25% were inconclusive and are not listed. The call rests on the fitted dose curve; in most records, active means well fitted curve in the direction sought with a large enough effect; inconclusive means small, poorly fitted or top-dose-only effect, or effect the other way; inactive means no such curve, though single readings can be large or run the other way. The list shows a part of the results.
Choose the fitting class; nothing outside 1 = active, 0 = inactive is accepted.

Query: Field: outcome | Entry: COc1ccc2cc(CCNC(=O)C3CC3)c(=O)[nH]c2c1
Response: 0

Query: Field: outcome | Entry: CN(CCc1ccccn1)c1ccc2c(c1)C(=O)c1ccccc1-2
Response: 1

Query: Field: outcome | Entry: COc1ccc2c(c1)C(=NN)c1cc(OC)ccc1-2
Response: 1

Query: Field: outcome | Entry: N/C(=N\OC(=O)c1cc(-c2ccccc2)nc2ccccc12)c1ccc(Cl)cc1
Response: 0

Query: Field: outcome | Entry: CCCCC(=O)NCCc1c(Cc2ccccc2)[nH]c2ccccc12
Response: 1

Query: Field: outcome | Entry: CCc1c(C)c2c(C)[nH]nc2oc1=O
Response: 0

Query: Field: outcome | Entry: CC(=O)N[C@@H](CC(=O)O)C(=O)O
Response: 0

Query: Field: outcome | Entry: Cc1ccc(C(c2nnnn2C2CCCC2)N2CCN3CCCC3C2)cc1 (stereo not given)
Response: 1

Query: Field: outcome | Entry: COc1ccc(NC(=O)CCNS(=O)(=O)c2ccc3c(c2)CCC(=O)N3)cc1
Response: 1

Query: Field: outcome | Entry: CCN1CCN(c2nc(C)c3c(n2)CCCC3=O)CC1
Response: 0

Query: Field: outcome | Entry: CN1[C@@H](CC(=O)c2ccccc2)CCC[C@@H]1C[C@@H](O)c1ccccc1
Response: 0

Query: Field: outcome | Entry: CCCCNC(=O)C(=O)NC(C)CCc1ccccc1 (stereo not given)
Response: 0

Query: Field: outcome | Entry: Cc1ccc2cc(CCNC(=O)c3ccc(Br)o3)c(=O)[nH]c2c1
Response: 1

Query: Field: outcome | Entry: CC(C)NC[C@H](O)c1ccc2ccccc2c1
Response: 0

Query: Field: outcome | Entry: O=C1NCC2(CCN(CCc3ccccc3)CC2)O1
Response: 0

Query: Field: outcome | Entry: CCCNC(=O)OC[C@@H]1O[C@H](CCO/N=C(\C)CCN2CCc3nc(CC)c(CC)cc3C2)C=C[C@@H]1Oc1ccc(OC)cc1
Response: 1

Query: Field: outcome | Entry: COc1ccc(NC(=O)C2(c3ccc(NC(=O)c4ccc(C)cc4)cc3)CCCC2)cc1
Response: 0

Query: Field: outcome | Entry: C=CCn1cc(/C=N\NC(=O)c2cc3c(ccc4ccccc43)o2)c2ccccc21
Response: 1

Query: Field: outcome | Entry: CCNC(=O)COC(=O)c1cc(-c2ccc(OC)cc2)nc2ccccc12
Response: 1

Query: Field: outcome | Entry: Cc1ccc(C)c(S(=O)(=O)N2CCC(c3nc4c(nnn4Cc4ccc(F)cc4)c(=O)[nH]3)CC2)c1
Response: 1

* * *

# SYSTEM NAME: Cytochrome P450 3A4 (Homo sapiens) (UniProt P08684)
# Sequence (P08684 whole entry, looked up): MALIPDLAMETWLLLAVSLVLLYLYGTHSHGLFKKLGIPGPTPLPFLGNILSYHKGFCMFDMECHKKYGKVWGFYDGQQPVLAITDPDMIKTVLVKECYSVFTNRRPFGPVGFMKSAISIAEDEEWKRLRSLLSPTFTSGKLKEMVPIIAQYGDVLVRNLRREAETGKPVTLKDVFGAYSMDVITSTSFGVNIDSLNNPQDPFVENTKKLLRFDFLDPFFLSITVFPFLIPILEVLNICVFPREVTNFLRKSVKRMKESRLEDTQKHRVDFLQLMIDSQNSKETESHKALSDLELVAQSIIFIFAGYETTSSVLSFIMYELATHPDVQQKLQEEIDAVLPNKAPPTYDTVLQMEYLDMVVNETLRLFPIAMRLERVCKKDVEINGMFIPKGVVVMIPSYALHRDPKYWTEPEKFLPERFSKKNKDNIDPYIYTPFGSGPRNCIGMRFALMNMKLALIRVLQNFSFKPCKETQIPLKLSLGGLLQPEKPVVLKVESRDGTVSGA
# PROTOCOL DESCRIPTION: Cytochrome panel assay with activity outcomes
# EXPERIMENTAL SETUP: recombinant CYP, pro-luciferin dealkylation, luminescence, p450-cyp3a4; series mostly up to 57.1 µM
The campaign covered roughly 16,000 compounds. About 5,100 (32%) were called active. Roughly 25% stayed inconclusive and do not appear here. Calls come from the whole dose curve; as a rule, active = well fitted curve in the direction sought with a large enough effect; inconclusive = small, poorly fitted or top-dose-only effect, or effect the other way; inactive = no such curve, though single readings can be large or run the other way. The list shows a part of the results.
Choose the fitting class; nothing outside 1 (active), -1 (inactive) is accepted.

Query: Field: outcome | Entry: CCCCc1ccc(-c2csc(/C(C#N)=C/c3ccc(C)o3)n2)cc1
Response: 1

Query: Field: outcome | Entry: O=[N+]([O-])c1cccnc1N1CCCCC1
Response: -1

Query: Field: outcome | Entry: COc1ccc(NC(=O)C(F)(F)F)cc1OC
Response: -1

Query: Field: outcome | Entry: CCOC(=O)N/N=C1/C[C@@H](O)[C@@H](O)[C@@H]2[C@@H]3C(=O)N(Cc4ccc5c(c4)OCO5)C(=O)[C@H]3CC[C@@H]12
Response: 1

Query: Field: outcome | Entry: Cc1ccc(CNCC(O)(c2ccc(F)cc2)c2ccc(F)cc2)cc1
Response: 1

Query: Field: outcome | Entry: Cc1cc(=O)[nH]c2ccccc12
Response: -1

Query: Field: outcome | Entry: O=C(NCCc1c[nH]c2ccccc12)[C@H]1C[C@@H]1[C@H](NP(=O)(c1ccccc1)c1ccccc1)c1ccccc1
Response: 1

Query: Field: outcome | Entry: COc1ccc(CCN2C(=NC(=O)CCC(=O)O)SC3CS(=O)(=O)CC32)cc1 (centres undefined)
Response: -1

Query: Field: outcome | Entry: C[C@]1(c2ccccc2)OC(C(=O)O)=CC1=O
Response: -1

Query: Field: outcome | Entry: COc1cccc(-c2cncnc2NCc2ccccc2OC)c1
Response: 1

Query: Field: outcome | Entry: CSCCC(NC=C1C(=O)OC(C)(C)OC1=O)C(=O)O (centres undefined)
Response: -1

Query: Field: outcome | Entry: O=C(CSCc1ccccc1Cl)NN1C(=O)c2ccccc2C1=O
Response: 1

Query: Field: outcome | Entry: COc1cc(/C=C2/C(=N)N3C=CSC3=NC2=O)ccc1OCCCOc1c(C)cccc1C
Response: 1

Query: Field: outcome | Entry: O=C(NNC(=S)Nc1ccccc1)C1CC1
Response: -1

Query: Field: outcome | Entry: CC(=O)Nc1ccc2c(c1)OCCOCCOc1cc(NC(C)=O)ccc1OCCOCCOCCO2
Response: -1

Query: Field: outcome | Entry: COc1ccccc1OCCOc1ccc(/C=C2/C(=N)N3OC(C)=CC3=NC2=O)cc1OC
Response: -1

Query: Field: outcome | Entry: COc1ccccc1OC[C@H](O)COC(N)=O
Response: -1

Query: Field: outcome | Entry: COc1ccc(C[C@@](C)(N)C(=O)O)cc1OC
Response: -1

Query: Field: outcome | Entry: O=C(NC(=S)Nc1ccc(Oc2ccc(Cl)cc2)cc1)c1ccccc1
Response: -1

Query: Field: outcome | Entry: O=C1NCCCC1C(=O)Nc1ccccc1C(F)(F)F (centres undefined)
Response: -1

Query: Field: outcome | Entry: COc1ccc(C/C(N)=N/OC(=O)Cc2ccccc2)cc1OC
Response: 1

Query: Field: outcome | Entry: O=C(CCCNS(=O)(=O)c1cccc2nsnc12)NCCc1ccccc1
Response: 1

Query: Field: outcome | Entry: CC(=O)Nc1ccc(S(=O)(=O)NC2(C(F)(F)F)NC(=O)N(c3ccc(Cl)cc3)C2=O)cc1 (centres undefined)
Response: -1

Query: Field: outcome | Entry: Cc1ccc(OCC(=O)NNC(=O)CCC(=O)Nc2ccc(C)cc2C)cc1
Response: -1

* * *

# SYSTEM NAME: Cytochrome P450 3A4 (Homo sapiens)
# PROTOCOL DESCRIPTION: Cytochrome panel assay with activity outcomes
# EXPERIMENTAL SETUP: recombinant CYP, pro-luciferin dealkylation, luminescence, p450-cyp3a4; series mostly up to 57.1 µM
# Experimental: The P450 gene superfamily is involved in the metabolism and clearance of xenobiotics. This assay used various human CYP P450 isozymes to measure the dealkylation of various pro-luciferin substrates to luciferin. The luciferin is then measured by luminescence after the addition of a luciferase detection reagent. […] Inhibitors and some substrates limit the production of luciferin, and decrease measured luminescence. […] 8, Detection, 1 sec, ViewLux luminescent read […]
The campaign covered roughly 16,000 compounds. About 5,100 (32%) were called active. Roughly 25% stayed inconclusive and do not appear here. Calls come from the whole dose curve; as a rule, active = well fitted curve in the direction sought with a large enough effect; inconclusive = small, poorly fitted or top-dose-only effect, or effect the other way; inactive = no such curve, though single readings can be large or run the other way. Some of the results follow.
Choose the fitting class; nothing outside True (active), False (inactive) is accepted.

Query: Field: outcome | Entry: Nc1ccc(N(S(=O)(=O)c2ccccc2)S(=O)(=O)c2ccccc2)c(Cl)c1
Response: True

Query: Field: outcome | Entry: N#Cc1ccc(CN2CCCC3(CCN(S(=O)(=O)c4ccccc4)CC3)C2)cc1
Response: True

Query: Field: outcome | Entry: O=C(c1ccccc1)[C@H](Nc1ccc2ccccc2c1)c1ccccc1
Response: True

Query: Field: outcome | Entry: O=C(Nc1ccc2ccccc2c1)c1onc2c1CCCC2
Response: False

Query: Field: outcome | Entry: CCOCCCN1C(=O)CN(C2CCCCCC2)C(=O)C1c1ccc(OC)cc1 (stereo not drawn)
Response: True

Query: Field: outcome | Entry: CCOCCCN1C(=O)CN(C2CCCCC2)C(=O)C1c1ccc(OCC)c(OC)c1 (stereo not drawn)
Response: True

Query: Field: outcome | Entry: CCOC(=O)CC(NC(=O)c1ccco1)c1ccc(OC)cc1 (stereo not drawn)
Response: False

Query: Field: outcome | Entry: CN(c1ccccc1)c1nc(-n2ccnc2)nc(-n2ccnc2)n1
Response: True

* * *

# SYSTEM NAME: Cytochrome P450 3A4 (Homo sapiens) (UniProt P08684)
# PROTOCOL DESCRIPTION: Cytochrome panel assay with activity outcomes
# EXPERIMENTAL SETUP: recombinant CYP, pro-luciferin dealkylation, luminescence, p450-cyp3a4; series mostly up to 57.1 µM
In all, about 16,000 compounds went through this assay and about 5,100 (32%) were called active. Roughly 25% stayed inconclusive and do not appear here. Calls follow the shape of the dose curve; as a rule, active = well fitted curve in the direction sought with a large enough effect; inconclusive = small, poorly fitted or top-dose-only effect, or effect the other way; inactive = no such curve, though single readings can be large or run the other way. Some of the results follow.
Choose the fitting class; nothing outside 1 (yes) (active), 0 (no) (inactive) is accepted.

Query: Field: outcome | Entry: COc1ccc2nccc(C(=O)O)c2c1
Response: 0 (no)

Query: Field: outcome | Entry: Cc1ccc(CCN2CC(C(=O)NC3CCCC3)CC2=O)cc1 (configuration not stated)
Response: 1 (yes)

Query: Field: outcome | Entry: NC1=NC2(CCCCC2)N=C(Nc2ccc(F)cc2F)N1
Response: 0 (no)

Query: Field: outcome | Entry: COc1ccccc1OCCCOc1ccc([N+](=O)[O-])cc1Cl
Response: 1 (yes)

Query: Field: outcome | Entry: COc1cc(C(=O)NC(=S)Nc2ccc3oc(=O)ccc3c2)cc(OC)c1OC
Response: 1 (yes)

Query: Field: outcome | Entry: C[C@H](N)CCCC(C)(C)O
Response: 0 (no)

Query: Field: outcome | Entry: O=C(O)c1cc(=O)cc(C(=O)O)[nH]1
Response: 0 (no)
